These measurements were taken from PubChem BioAssay (NCI).

Would you kindly list TGI for each of these compounds?
# Tested on: PC-3 prostate
# PROCEDURE_TEXT: NCI tumour cell line growth inhibition, 48 h
# value in µM; strip the unit string

Req: Record request: TGI value, item O=C1CSC(c2cccc(Oc3ccccc3)c2)N1c1cc(Cl)ccc1Cl (stereo not given)
Resp: 52.5

Req: Record request: TGI value, item CN1CCN(Cc2ccc(NC(=O)c3cncc(C#Cc4cnc5cccnn45)c3)cc2C(F)(F)F)CC1
Resp: 5.75

Req: Record request: TGI value, item CC(C)c1nc(Cl)c(Cl)c(Cl)n1
Resp: 17.7

Req: Record request: TGI value, item COc1cc2c(cc1OCCCN1CCN(CCCn3c4ccccc4c4ccccc43)CC1)N=C[C@@H]1CCCN1C2=O
Resp: 0.523

Req: Record request: TGI value, item CC1=C(C(=O)OC(C)(C)C)C(c2ccc([N+](=O)[O-])cc2)C(C(=O)OC(C)(C)C)=C(C)N1
Resp: 45.1
